Data credit: the supplement of paper PMC12455559

- test method notes: PET hydrolysis, aromatic products released after 48 h (umol product/mg enzyme); higher = more PET depolymerization activity
- conditions used: substrate: aFilm; 40 °C; pH 6.5
property name: PET hydrolysis
Numbers only.

Qu. If you can, please state the reported PET hydrolysis value of ADNPYQRGPDPTRTSVTAVNGPFANTSVSVPTGHGFNGGRIYYPTDTSQGTFGAIAISPGYTALFSAELAWMGPWLASHGFVVIGIETNSRNDFDTARGTQLLAALDYLTQQSPVRDRVDPSRLAVSGHSMGGGGALSAAMRRASLKAVVGITPYSPSSNLANDRVPTMIISGQADTVVTPSYALGLYNSIPATTESVYLEVAGGDHGFMVGRSNPVLVRTMLPFLKMFIDNDTRYSQFLCPLLDNSGVVTYRSTCPLLPTDPTTPPTGTPTPTPTTPAPTTPPPTTPPGSASEIRGTQSNRCIDVPNASRNNGTRVQLYDCNRQTNQAWTYTANKQLQVYGNMC [ESM106] .
Ans. 3.5

###

- test method notes: purified protein yield per well (BCA); higher = higher soluble expression
property name: purified protein yield per well (µg)
Give bare numbers, in µg.

Qu. Fill in the blank: the reported purified protein yield per well of ADNPYQRGPDPTNASIEAATGPFAVGTQPIVGASGFGGGQIYYPTDTSQTYGAVVIVPGFISVWAQLNWLGPRLASQGFVVIGIETSVITDLPDPRGDQALAALDWATTRSPVASRIDRTRLAAAGWSMGGGGLRRAALQRPSLKAIVGMAPWNGERNWSAVTVPTLFFGGSSDAVASPNDHAKPFYNSITRAEKDYIELRNADHFFPTSANTTMAKYFISWLKRWVDNDTRYTQFLCPGPSTGLFAPVSASMNTCPF [DP077] is ____.
Ans. 87

###

- test method notes: PET hydrolysis, aromatic products released after 48 h (umol product/mg enzyme); higher = more PET depolymerization activity
- conditions used: substrate: aFilm; 40 °C; pH 5.5
property name: PET hydrolysis

The following sequences have reported results that may help.
entry sequence: MAENPYERGPAPTTSSIEASRGSFATSTVTVSRLAVSGFGGGTIYYPTSTTAGTFGAISIAPGFTALQSSIAWLGPRLASQGFVVFTIDTLTTSDQPDSRGRQLLAALDYLTQQSSVRSRIDSSRLGVVGHSMGGGGTLEAARSRPSLQAAIPLTGWNLTKTWSTVRVPTLVVGAQADTVAPVASHSIPFYNSLPSSLDKAYLELRGASHFAPNSSNTTIAKYTLSWLKRFIDNDTRYEQFLCPIPSTSLSISDYRGNCPHNG [TEP182]
PET hydrolysis: < 3

entry sequence: AGFEKGPDPTTASVTADRGSYDIAQVDVPKGSGTGFADGTIYYPKSTADGTFGAVAVIPGFLEPKSAIDWYGPRLASQGFVVMTLDTTSVFDTPDSRGGQLLAALDYLTSKSTVKDRIDPNRLAVVGHSMGGGGTLSAAANRPNLKAAVALAPWHVSAPLTSVKTPTMIFGSDNDFIAPDGTFAKPFYDGISNAPEKAYVRLKNAGHMAYVFPDKRIAEYTLSWLKRYVDDDTRYTQFLCPGPTNESTIAAYKSTCPM [DP093]
PET hydrolysis: < 3

entry sequence: ADNPYQRGPDPTAASIAAVTGPFATASVTVPRGNGFGGGVIYYPTDTSQGTFGGIAISPGLNGTWPGIAWLGPRLASQGFVVFGIETNNLNDSPTSRGTQLLAALDYLTGSSSVRTRVDAGRLAVAGHSMGGGGALDAALRRPSLRATIGNAPHLPSGSLANDRVPTLIYAMQNDTLVPPSRLTSLYNTVPATTERGYLEITGAGHNYIGQPSTILARTMIPWLKIFVDDDARYSQFLCPLTDRSGISQYQSSCPLITTSPTTGPTAQPTTAAPTTTPTTPPVGGPCEATHRTVNSWSGGYQGEVTVRAGSAAINGWTVSWTLGSGQTINQVWGGALTASGTAATVRNETWNGPVAAGASTTFGYIATGNAPTQPLACSAR [ESM060]
PET hydrolysis: < 3

entry sequence: MAAANPYQRGPDPTLASVAATNGPFATAQMTVPPGNGFNGGYIYYPTDTSLGTWGAVAIVPGYTALFKNEEAWMGPRLASFGFVVIGIETNSRTDFDTARGTQLLAALDYLTQKSAVRNRVDPGRLGVIGHSMGGGGALVAATQRPSLKAAVGLAPFKPSGNLANDRVPTMFIAGNRDTVVTPSYLDGLYGSLPAATKKAYVQINGADHLFATKPNTVEMRTLIPWLKIFLDNDTRYSQFLCPTLLDKTGVSMYRGTCPLI [TEP109]
PET hydrolysis: 12.5

entry sequence: ADNPYQRGPDPTPASVAAVNGPFATASVSVPAGYGFGGGMIYYPTDTSQGTFGGIAISPGYTALFSAELAWMGPWLASHGFVVIGIETNSRNDFDEARGTQLLAALDYLTQQSPVRTRVDPNRLAVSGHSMGGGGALNAAIRRPSLKAAVGLAPFLPSSNLANDRVPTMVFAGQQDTVVSPSYVTNLYNSLPATTESAYLEIAGGDHGFPVGRPNQVMIRTMLPFVKIFLDNDTRYSQFLCPLMDSTGVVTYRSTCPLLPPGLPTTPPTSTSSNPTVGPTTPSTTAPTTTPAPGGACTATYRTTNSWPGGFQGEVTITAGSSAINGWTVRWTLGSGQTISQVWNGEVSITGSTVSVRNAPYNGSLPASGSTTFGFLGGGSPSSPSLTCTSP [TEP165]
PET hydrolysis: < 3

entry sequence: QSAEASPPHGPDPTEESITAPRGPFEIDQKTVSRASVRGFGGGTIYYPTDTSEGTFSAVAIAPGYTAGQESLAWLGPRLASQGFVVFTIDTLTRYDQPDSRSRQLLAALDHLTDDSDVADRVDPARRGVMGHSMGGGGSLQAALDDPDLKAAIPMTPWHTTKDFSGVRTPTLIIGAQNDTVAPVSQHAKPFYESLPDDPGKAYLELAGASHFAPNVDNTTIARYSIAWLKRFLDDDTRYEQFLCPPPPDPAISDHQSTCPY [TEP105]
PET hydrolysis: < 3

Look at each sequence and report its PET hydrolysis.
1. ATNPYQRGPAPTAESISAERGSFAVADSAVSADSVSGFGGGTVYYPTDTSAGKFGAVAIAPGFTANEWSLAWLGPRLASHGFVVFIIDTITTGDQPAQRGDELRAALSYLTTSSPVRDRVDPARLGVMGHSMGGGGALQAAEDDPSIRAVIPMTPYDLDSPSPKVTAPTLIIGAQDDTIAPVAYHARPFYESLTSARAKEYIELRNQSHFAPNYPNATIASASIAWLKRYIDDDQRYQPFACPAQVGSWLISDFRSAC [DP034]
2. ADNPYQRGPDPTVASVAATNGPFATAQLNVPSGNGFNGGTIYYPTDTSLGTWGAVAIVPGYTARFANEEAWMGPRLASFGFVVIGVETNSTTDWDTARGTQLLAALDYLTQKSSVRDRVDASRLAVIGHSMGGGGVVYAASQRPSLKAAIGLAPYAPSGNLSNVKVPMLIQGGQNDTVVTPSYLDGLYPTLPSSTPGAYVQYSGADHLFWTKANNIELRTQIPWLKIFLDNDTRYTQFMCPTLKDTASVAKYSAKCSLIPSAGSTTAPTTQPATSAPATTSPTTQPPSQPG [TEP083]
3. ADTPYERGPNPSESLIEQRRGNYDIAQRSISRFSSDGFRNGTIYYPTDTSDGKFGVIAISPGYTAGESSIAWLGSRIASFGFVVVTINTTTRYDQPRQRSTQLLAALDHAMNDSVVGPLIDPERQAVMGHSMGGGGALQAAESRPEIDAVVALTPWNLKKNWDGVDAATLIIGAERDTVASVRTHSIPFYESLTQAEQRGYLELRGASHFAPNVSNTTIAKYSIAWMKRYLDNDDRYDQFLNPGPAVGYASGVSDYRLQ [DP003]
4. LTPSPTPPPTGGTGGCPADAICRGETPGSYSANGPYGSRSYTLSRIQTPGGATVYYPANAEPPFSGLVFTPPYTGSQFMYRAWGPFFASHGIVMVTMDTRTTLDSVDQRAAQQKQVLDALKAENTRSASPLRGKLDTSRLGAVGWSMGGGATWINSAEYSGLKTAMSLAGHNLSALDINARGSNTRVPTLIMNGALDATYLGGLGQSLGVYNNIPRGIPKVIYEVSSAGHFSWGSPTSAGRSVAQIALAFQKTFLDGDTRWATYIRRPSSGVATWRTANLP [ESM175]

Ans.
< 3
< 3
< 3
< 3

Qu. Can you share its PET hydrolysis? I mean this sequence: AANPYERGPAPTAASIAATTGPFAVASVSVPRGNGFGGGVIYYPTSTSQGTFGGVAISPGLNGTWAGIAWLGPRLASQGFVIFGIETNNLNDSPASRGTQLLAALDFLTRSSSVRTRVDASRLAVAGHSMGGGGALSAALQRPSLQAAIGNAPHLPSGSLATDRVPTLIYAMQNDTLVTPSRLTSLYNSMPATTERAYIEVAGAGHNYIGQPSTTLARTMIPWLKIFVDNDARYSQFLCPLSNQSGISQYRNSCPLISTTTLSTGVDSTSGLAVR [ESM157]
Ans. < 3
